# protein stability index values compiled below
B1: CAMK2B (parent)
chain: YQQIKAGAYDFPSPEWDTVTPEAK

Variants of: B1
Assay: protein stability index of a GFP-peptide fusion (GPS, HEK-293T) (PSI 1-6); higher = more stable;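 also: lentivirally expressed fusions sorted by FACS into six bins by GFP to DsRed ratio, PSI derived from sequencing read proportions per bin multiplied by bin number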
Conditions: c terminus: a fixed tail appended
Note: the reply should be a number with no unit written.

variant_annotation=E15F numeric_result=2.14
variant_annotation=F11Q numeric_result=4.24
variant_annotation=A6S numeric_result=3.59
variant_annotation=D17P numeric_result=3.27
variant_annotation=A8Q numeric_result=3.68
variant_annotation=T18Y numeric_result=2.79
variant_annotation=V19R numeric_result=2.99
variant_annotation=E22W numeric_result=2.08

Let me know recorded protein stability index for A6E , thanks.
4.41
